# Tested on: OVCAR-8 ovarian
# test protocol: NCI tumour cell line growth inhibition, 48 h
Exercise: for every item that follows, state its recorded TGI.

[
  {
    "molecule": "Brc1ccc(Br)nn1",
    "TGI": "9.26 µM"
  },
  {
    "molecule": "O=C1C2Nc3ccccc3SC2C(=O)N1c1cccc([N+](=O)[O-])c1 (stereo not given)",
    "TGI": "> 100 µM"
  },
  {
    "molecule": "O=C(NC/C(Cl)=C/Cl)Nc1cccc2c1CCCC2",
    "TGI": "> 100 µM"
  }
]

Kindly give each listed record's TGI.
1. FC(F)(F)C1(C(F)(F)F)C2CCC3(CC(F)(F)C(F)(F)S3)C1C2 (stereo not given)
2. COc1cccc(/C=C2\C(=O)N(C(=O)Cc3ccccc3)N=C2C)c1

output:
["> 100 µM", "> 100 µM"]

====

# Test system: SR leukemia
# test protocol: NCI tumour cell line growth inhibition, 48 h
assay endpoint: TGI

Reference set, count: 4
[
  {
    "compound": "CC[C@H](C)[C@H](NC(=O)C12CC(NC(C)=O)(C1)C2)C(=O)N(C)[C@H](C[C@@H](OC(C)=O)c1nc(C(=O)N[C@@H](Cc2ccccc2)C[C@H](C)C(=O)OC)cs1)C(C)C",
    "TGI": "> 16.7 µM"
  },
  {
    "compound": "CC(=O)N[C@@H](Cc1ccc(OP(=O)(O)O)cc1)C(=O)N[C@H]1CCC(=O)N2CCC[C@@H](C(=O)NCc3ccc(O)cc3)N2C1=O",
    "TGI": "> 25 µM"
  },
  {
    "compound": "O=c1cc(-c2ccccc2Cl)[nH]c2cc3c(cc12)OCO3",
    "TGI": "> 100 µM"
  },
  {
    "compound": "C/C(CN1C(=O)c2ccccc2C1=O)=N\\NS(=O)(=O)c1ccc(F)cc1",
    "TGI": "> 100 µM"
  }
]

Would you mind listing TGI for each of the following compounds?
1. O=C1N[C@@H]2c3c(Br)sc(Br)c3C(=O)[C@@H]2N1
2. CC1CC(NN(C)C)C2(C(N)=O)C(N)=NC(=O)C12C#N (stereo unspecified)
3. NC1=NS(=O)(=O)Nc2nc(-c3cccs3)[nH]c21
4. Cc1cc(C)c(NS(=O)c2cccc([N+](=O)[O-])c2)c(C)c1 (stereo unspecified)

output:
["4.72 µM", "> 100 µM", "> 100 µM", "> 100 µM"]

Hey, can you go through the list below and give me TGI for every item?
1. NNC(=S)N/N=C/C(Cl)=C(\Cl)C(=O)O
2. CC(O)=NC(Cc1ccc2ccccc2c1)C(O)=NC(Cc1ccc(Cl)cc1)C(O)=NC(Cc1c[nH]c2ccccc12)C(O)=NC(CO)C(O)=NC(Cc1ccc(O)cc1)C(O)=NC(CCCN=C(N)N)C(O)=NC(CC(C)C)C(O)=NC(CCCN=C(N)N)C(=O)N1CCCC1C(O)=NC(C)C(=N)O (stereo unspecified)
3. C[C@@H]1CN2[C@H]3[C@@H]1CC[C@]31CCC(=O)O[C@]1(C)[C@@H]1CC[C@H]3CCC=C3[C@@H]12

output:
> 100 µM
> 100 µM
> 70 µM

Required: TGI, one value per compound below.
1. COc1ccc(-n2sc(=O)n(Cc3ccc(COC(=O)C(C)c4ccc(CC(C)C)cc4)cc3)c2=O)cc1 (stereo unspecified)
2. N#Cc1ccccc1Nc1ccccc1S
3. CN(NC(=O)c1cccs1)C1=NCCN1

output:
1. 50 µM
2. > 100 µM
3. > 100 µM

For every record below, what is its TGI?
1. C[n+]1c(-c2ccc(/C=N\NC(=O)c3ccc(C(=O)N/N=C/c4ccc(-c5cn6ccsc6[n+]5C)cc4)cc3)cc2)cn2ccsc21
2. COc1ccc(C2C(Cl)C(=O)N2NC(=O)c2ccc(N)cc2)cc1OC (stereo unspecified)

output:
1: 85.6 µM; 2: 4.85 µM
